Source of measurements: the supplement of paper PMC6555819

Test system: PPARa:RXRa (NR concentration 270 nM, RXRa partner concentration 90 nM)
Experiment: PBM binding z-score (relative to random genomic background probes); higher = stronger binding; sequences stand for … in GC…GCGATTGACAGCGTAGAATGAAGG
assay-metric: PBM binding z-score
One number for each entry.

>>> print(df.to_string())
                        item_sequence         assay_metric  observed_value
0  TAGCGTAGGTCATTGGGCCAGTATAGTACGCATC  PBM binding z-score            4.15

Would you mind listing PBM binding z-score for each of the following sequences?
1. ATCTCTAGGTAAAAGTTCGGTGAATCCCGAGGAT
2. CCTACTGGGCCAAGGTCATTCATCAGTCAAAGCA
3. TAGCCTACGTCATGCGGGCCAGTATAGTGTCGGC

Resp:
1. 2.68
2. 4.07
3. -0.592
